The reported measurements were obtained from ChEMBL document CHEMBL3885861.

I'd be grateful if you could share measured KIDNEY_TOTAL for these entries.
# Organism: Rattus norvegicus
# measurement_description: Open TG-GATES - Regimen: Daily Repeat
# Assay type: toxicity, organism-based, Sprague-Dawley
# Design: regimen Daily Repeat, gender Male, age 6 weeks
# measurement_parameters: in vivo, po, 0 mg/kg, […], tissue Kidney, route gavage, dose level Control, time 14 day
One number for each entry, in g.

Example molecules with recorded KIDNEY_TOTAL:
CO[C@H]1/C=C/O[C@@]2(C)Oc3c(C)c(O)c4c(O)c(c(/C=N/N5CCN(C)CC5)c(O)c4c3C2=O)NC(=O)/C(C)=C\C=C\[C@H](C)[C@H](O)[C@@H](C)[C@@H](O)[C@@H](C)[C@H](OC(C)=O)[C@@H]1C | 2.4
O=C(O)c1cn(C2CC2)c2cc(N3CCNCC3)c(F)cc2c1=O | 2.4
Cn1c(=O)c2[nH]cnc2n(C)c1=O.O | 2.7

Then there is this molecule:
Requested field: KIDNEY_TOTAL. Item: CCc1cc(C(N)=S)ccn1 [ETHIONAMIDE]
2.7

* * *

# Organism: Rattus norvegicus
# measurement_description: Open TG-GATES - Regimen: Single
# Format: toxicity, organism-based, Sprague-Dawley
# Set-up: regimen Single, gender Male, age 6 weeks
# measurement_parameters: in vivo, po, 100 mg/kg, 24 h, tissue Plasma, route gavage, dose level Low
measurement_name: gamma-GTP (IU/L)
One number for each entry, in IU/L.

Example compounds with recorded gamma-GTP:
CCc1cc(C(N)=S)ccn1 [ETHIONAMIDE] | 1.8
C[C@H](CS)C(=O)N1CCC[C@H]1C(=O)O | 1
O=C(O)c1cc(/N=N/c2ccc(S(=O)(=O)Nc3ccccn3)cc2)ccc1O | 1.6
Clc1ccccc1CN1CCc2sccc2C1 | 1

Requested field: gamma-GTP. Item: `O=C(O)c1cn(C2CC2)c2cc(N3CCNCC3)c(F)cc2c1=O`
1.4

* * *

# Species on record: Rattus norvegicus
# measurement_description: Open TG-GATES - Regimen: Single
# Assay type: toxicity, organism-based, Sprague-Dawley
# Set-up: regimen Single, gender Male, age 6 weeks
# measurement_parameters: in vivo, po, 300 mg/kg, 24 h, tissue Blood, route gavage, dose level Middle
I'd be grateful if you could share measured Ret for these entries.
One number for each entry, in %.

O=C(O)c1cn(C2CC2)c2cc(N3CCNCC3)c(F)cc2c1=O | 9.4

Parameters: items (list). Returns: Ret for each item.
1. C[C@H](CS)C(=O)N1CCC[C@H]1C(=O)O
2. CCc1cc(C(N)=S)ccn1 [ETHIONAMIDE]
3. Clc1ccccc1CN1CCc2sccc2C1
4. O=C(O)c1cc(/N=N/c2ccc(S(=O)(=O)Nc3ccccn3)cc2)ccc1O

1: 8.6; 2: 7.7; 3: 6.1; 4: 6.5

* * *

# Organism: Rattus norvegicus
# measurement_description: Open TG-GATES - Regimen: Single
# Format: toxicity, organism-based, Sprague-Dawley
# Set-up: regimen Single, gender Male, age 6 weeks
# measurement_parameters: in vivo, po, 100 mg/kg, 3 h, tissue Plasma, route gavage, dose level Low
measurement_name: TC (mg/dL)
Answers are plain numbers, in mg/dL.

Example compounds with recorded TC:
O=C(O)c1cc(/N=N/c2ccc(S(=O)(=O)Nc3ccccn3)cc2)ccc1O | 80
C[C@H](CS)C(=O)N1CCC[C@H]1C(=O)O | 70.4
Clc1ccccc1CN1CCc2sccc2C1 | 70.2
CCc1cc(C(N)=S)ccn1 [ETHIONAMIDE] | 73

Then there is this compound:
Requested field: TC. Item: `O=C(O)c1cn(C2CC2)c2cc(N3CCNCC3)c(F)cc2c1=O`
84.6
